We begin with a simple list: items and their reported cell viability z-score within plate.
Test system: FLX1
Experiment: cell viability z-score within plate (CellTiter-Glo), mean of 3 biological replicates; higher = higher viability relative to plate (less growth inhibition)
Settings: 2 µM; time (hr): 120
Provide a numeric answer; units are not to be included.

# Compound, cell viability z-score within plate
rows = [
    ("Oc1ccc(-c2nc(-c3ccc(F)cc3)c(-c3ccncc3)[nH]2)cc1", -1.48),
]

Challenge: Given CNC(=O)c1cccc(-c2ccc3c(N4CCOC[C@@H]4C)nc(N4CCOC[C@@H]4C)nc3n2)c1 [Vistusertib (AZD2014)] , respond with its cell viability z-score within plate.
Response given: -0.936

Challenge: Given CN1CC[C@H](c2c(O)cc(O)c3c(=O)cc(-c4ccccc4Cl)oc23)[C@H](O)C1 [Flavopiridol (Alvocidib)] , respond with its cell viability z-score within plate.
Response given: 0.251

Challenge: Given "Cc1c(NC(=O)OC[C@@H]2COCCN2)cn2ncnc(Nc3ccc4c(cnn4Cc4cccc(F)c4)c3)c12" , respond with its cell viability z-score within plate.
Response given: -2.76

----------
Test system: FLX1 + dox-induced PRKAR1A G325D
Test: difference in log2 fold change of viability vs plate median (dox-induced PRKAR1A G325D minus uninduced); higher = compound less effective when PKA is inhibited
Conditions: concentration: not stated (2 or 5 uM); 5 days
Where a name gives a salt, the structure may show the parent alone.
We begin with a simple list: items and their reported difference in log2 fold change of viability.
Provide a numeric answer; units are not to be included.

Completed entries (count: 6):
# Molecule, Target Of Assay, Meas Value
measured = [
    ("N=C(N)NC(=N)NCCc1ccccc1 [Phenformin HCl]", "FLX1 + dox-induced PRKAR1A G325D", -0.0569),
    ("CO[C@H]1C[C@@H]2CC[C@@H](C)[C@@](O)(O2)C(=O)C(=O)N2CCCC[C@H]2C(=O)O[C@H]([C@H](C)C[C@@H]2CC[C@@H](O)[C@H](OC)C2)CC(=O)[C@H](C)/C=C(\\C)[C@@H](O)[C@@H](OC)C(=O)[C@H](C)C[C@H](C)/C=C/C=C/C=C/1C [Rapamycin (Sirolimus)]", "FLX1 + dox-induced PRKAR1A G325D", -0.339),
    ("Cc1nc(N)sc1-c1ccnc(Nc2ccc(N3CCOCC3)cc2)n1", "FLX1 + dox-induced PRKAR1A G325D", 0.455),
    ("O=C(NC[C@H](O)CO)c1ccncc1Nc1ccc(I)cc1F", "FLX1 + dox-induced PRKAR1A G325D", -1.7),
    ("CN1CCN(c2ccc3nc(-c4c(N)c5c(F)cccc5[nH]c4=O)[nH]c3c2)CC1 [Dovitinib (TKI-258) Dilactic Acid]", "FLX1 + dox-induced PRKAR1A G325D", -0.364),
    ("CS(=O)(=O)c1cccc(CNc2nc(Nc3ccc4c(c3)CCC(=O)N4)ncc2C(F)(F)F)c1", "FLX1 + dox-induced PRKAR1A G325D", -0.0481),
]

Challenge: Given "C=CC(=O)Nc1ccc2ncnc(Nc3ccc(OCc4cccc(F)c4)c(Cl)c3)c2c1" , respond with its difference in log2 fold change of viability.
Response given: -0.53

----------
Tested on: FLX1
Assay: cell viability z-score within plate (CellTiter-Glo), mean of 3 biological replicates; higher = higher viability relative to plate (less growth inhibition)
Conditions: 2 µM; time (hr): 120
Counter-ions that a name gives are not always drawn.
Metric: cell viability z-score within plate
Provide a numeric answer; units are not to be included.

# Compound, Target Of Assay, Metric, Meas Value
rows = [
    ("N#C/C(=C\\c1ccc(O)c(O)c1)C(=O)NCc1ccccc1 [AG-490 (Tyrphostin B42)]", "FLX1", "cell viability z-score within plate", -0.668),
    ("C=CC(=O)Nc1cccc(Nc2nc(Nc3ccc(OCCOC)cc3)ncc2F)c1", "FLX1", "cell viability z-score within plate", -0.411),
    ("Cn1cc(-c2ccc3ncc(Cc4ccc5ncccc5c4)n3n2)cn1", "FLX1", "cell viability z-score within plate", 0.137),
]

Challenge: Given "COc1ccc(-c2ccc3c(N4CCOC[C@@H]4C)nc(N4CCOC[C@@H]4C)nc3n2)cc1CO" , respond with its cell viability z-score within plate.
Response given: 0.926

Challenge: Given CCC[C@H](NC(=O)/C(C#N)=C/c1cccc(Br)n1)c1ccccc1 [Degrasyn (WP1130)] , respond with its cell viability z-score within plate.
Response given: -0.0534

Challenge: Given COc1cc2c(c(OC)c1OC)-c1c(cc3c(c1OC)OCO3)CC(C)C(C)C2 (stereo not drawn) [Schisandrin B (Sch B)] , respond with its cell viability z-score within plate.
Response given: 0.407

Challenge: Given Cc1ccc(NC(=O)c2ccc(CN3CCN(C)CC3)cc2)cc1Nc1nccc(-c2cccnc2)n1 [Imatinib Mesylate (STI571)] , respond with its cell viability z-score within plate.
Response given: -1.25

Challenge: Given O=C(NC(NC(=S)Nc1ccc(F)c([N+](=O)[O-])c1)C(Cl)(Cl)Cl)C(c1ccccc1)c1ccccc1 (stereo not drawn) , respond with its cell viability z-score within plate.
Response given: 0.309

----------
Tested on: FLX1 + dox-induced PRKAR1A G325D
Assay: difference in log2 fold change of viability vs plate median (dox-induced PRKAR1A G325D minus uninduced); higher = compound less effective when PKA is inhibited
Conditions: concentration: not stated (2 or 5 uM); 5 days
Metric: difference in log2 fold change of viability
Provide a numeric answer; units are not to be included.

Completed entries (count: 5):
# Molecule, Meas Value
rows = [
    ("O=c1c(-c2ccc(O)cc2)coc2cc(O)cc(O)c12 [Genistein]", 0.126),
    ("Cc1nc(Nc2cnn(C3CCNCC3)c2)nc2c1N(C)C(=O)c1cc3ccccc3cc1N2C", -0.568),
    ("O=C1Nc2ccc(I)cc2/C1=C/c1cc(Br)c(O)c(Br)c1", 1.35),
    ("CC[C@@H]1C(=O)N(C)c2cnc(Nc3ccc(C(=O)N[C@H]4CC[C@H](N5CCN(CC6CC6)CC5)CC4)cc3OC)nc2N1C(C)C [Volasertib (BI 6727)]", -0.0557),
    ("C=CC(=O)Nc1cccc(Nc2nc(Nc3ccc(Oc4ccnc(C(=O)NC)c4)cc3)ncc2F)c1", -0.452),
]

Challenge: Given O=c1c(O)c(-c2ccc(O)c(O)c2)oc2cc(O)cc(O)c12 [Quercetin] , respond with its difference in log2 fold change of viability.
Response given: -0.0725

Challenge: Given "CO[C@H]1C[C@@H]2CC[C@@H](C)[C@@](O)(O2)C(=O)C(=O)N2CCCC[C@H]2C(=O)O[C@H]([C@H](C)C[C@@H]2CC[C@@H](OC(=O)C(C)(CO)CO)[C@H](OC)C2)CC(=O)[C@H](C)/C=C(\C)[C@@H](O)[C@@H](OC)C(=O)[C@H](C)C[C@H](C)/C=C/C=C/C=C/1C" , respond with its difference in log2 fold change of viability.
Response given: 0.457

Challenge: Given "Cc1csc(-c2nnc(Nc3ccc(Oc4ncccc4-c4ccnc(N)n4)cc3)c3ccccc23)c1" , respond with its difference in log2 fold change of viability.
Response given: 0.188

Challenge: Given "COc1cc(OC)c(/C=C/S(=O)(=O)Cc2ccc(OC)c(NCC(=O)O)c2)c(OC)c1" , respond with its difference in log2 fold change of viability.
Response given: 0.2

Challenge: Given "O=C(Nc1c[nH]nc1-c1nc2ccc(CN3CCOCC3)cc2[nH]1)NC1CC1" , respond with its difference in log2 fold change of viability.
Response given: 0.115

----------
Test system: FLX1 + dox-induced PRKAR1A G325D
Assay: difference in log2 fold change of viability vs plate median (dox-induced PRKAR1A G325D minus uninduced); higher = compound less effective when PKA is inhibited
Conditions: concentration: not stated (2 or 5 uM); 5 days
Metric: difference in log2 fold change of viability
Provide a numeric answer; units are not to be included.

Completed entries (count: 5):
# Compound, Meas Value
records = [
    ("COc1cc2nccc(Oc3ccc(NC(=O)Nc4cc(C)on4)c(Cl)c3)c2cc1OC", -0.0533),
    ("CN1CCN(C2CCN(C(=O)Nc3cc(Oc4ccc(NC(=O)C5(C(=O)Nc6ccc(F)cc6)CC5)c(F)c4)ccn3)CC2)CC1 [Golvatinib (E7050)]", 0.0894),
    ("CC(C)(C)c1cc(/C=C(\\C#N)C(N)=S)cc(C(C)(C)C)c1O", 0.264),
    ("O=c1sn(-c2cccc3ccccc23)c(=O)n1Cc1ccccc1", 1.01),
    ("Clc1ccc(Nc2nnc(Cc3ccncc3)c3ccccc23)cc1 [Vatalanib (PTK787) 2HCl]", 0.168),
]

Challenge: Given "Nc1ccc(-c2ccc3ncc4ccc(=O)n(-c5cccc(C(F)(F)F)c5)c4c3c2)cn1" , respond with its difference in log2 fold change of viability.
Response given: 0.605

Challenge: Given "N#Cc1c(Oc2ccc(F)c(NC(=O)Cc3cccc(C(F)(F)F)c3)c2)ccc2nc(NC(=O)C3CC3)sc12" , respond with its difference in log2 fold change of viability.
Response given: -0.168

Challenge: Given "NC(=O)c1ncn([C@@H]2O[C@H](CO)[C@@H](O)[C@H]2O)c1N" , respond with its difference in log2 fold change of viability.
Response given: -0.0733
